Consider the following binders and their measured glycan array binding signal (z-score) readings.
# assayed system: GlcNAc(b1-3)Gal(b1-4)GlcNAc(b1-3)Gal(b1-4)GlcNAc(b1-2)Man(a1-3)[GlcNAc(b1-3)Gal(b1-4)GlcNAc(b1-3)Gal(b1-4)GlcNAc(b1-2)Man(a1-6)]Man(b1-4)GlcNAc(b1-4)GlcNAc
# assay: glycan array binding signal (z-score within array); higher = stronger binding
# assay context: glycan notation: IUPAC condensed, linker removed
The full list was thinned out, with the strongest signals kept by preference.
reported metric: glycan array binding signal (z-score)

binder="ECA (Erythrina cristagalli), P83410 (protein) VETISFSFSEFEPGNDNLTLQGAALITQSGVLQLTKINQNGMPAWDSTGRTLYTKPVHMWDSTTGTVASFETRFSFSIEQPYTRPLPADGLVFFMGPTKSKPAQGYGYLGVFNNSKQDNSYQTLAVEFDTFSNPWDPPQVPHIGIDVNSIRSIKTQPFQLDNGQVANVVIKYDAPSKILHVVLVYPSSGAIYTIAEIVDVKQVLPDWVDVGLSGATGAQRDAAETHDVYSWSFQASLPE" assay_result=3.72
binder="pilr alpha (protein) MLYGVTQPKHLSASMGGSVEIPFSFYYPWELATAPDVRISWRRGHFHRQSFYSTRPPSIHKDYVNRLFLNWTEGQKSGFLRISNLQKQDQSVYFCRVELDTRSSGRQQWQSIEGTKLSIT" assay_result=1.68
binder="YASPKCFRYPNGVLACT [Odorranalectin (Odorrana grahami), B3TFE9_RANGR]" assay_result=3.67
binder="PpFlo1 (Pichia pastoris) (protein) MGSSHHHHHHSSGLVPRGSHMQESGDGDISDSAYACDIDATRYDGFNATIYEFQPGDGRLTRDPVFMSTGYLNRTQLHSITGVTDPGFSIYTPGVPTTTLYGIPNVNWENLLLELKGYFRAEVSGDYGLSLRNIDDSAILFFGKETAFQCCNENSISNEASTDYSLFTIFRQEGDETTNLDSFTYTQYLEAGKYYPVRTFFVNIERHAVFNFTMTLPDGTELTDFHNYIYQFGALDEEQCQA" assay_result=0.609
binder="ArathEULS3 TAP (Arabidopsis thaliana) (protein) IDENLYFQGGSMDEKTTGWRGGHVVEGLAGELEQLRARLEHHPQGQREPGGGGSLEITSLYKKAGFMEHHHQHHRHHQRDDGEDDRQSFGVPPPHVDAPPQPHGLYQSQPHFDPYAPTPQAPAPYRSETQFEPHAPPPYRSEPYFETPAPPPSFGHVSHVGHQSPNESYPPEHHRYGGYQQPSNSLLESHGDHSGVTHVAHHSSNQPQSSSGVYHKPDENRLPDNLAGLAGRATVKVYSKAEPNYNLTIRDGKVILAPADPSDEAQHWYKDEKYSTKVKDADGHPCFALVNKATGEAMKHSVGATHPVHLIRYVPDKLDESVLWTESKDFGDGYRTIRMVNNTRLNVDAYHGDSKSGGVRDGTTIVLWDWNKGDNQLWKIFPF" assay_result=2.26
binder="EUL D1A second (Oryza sativa) (protein) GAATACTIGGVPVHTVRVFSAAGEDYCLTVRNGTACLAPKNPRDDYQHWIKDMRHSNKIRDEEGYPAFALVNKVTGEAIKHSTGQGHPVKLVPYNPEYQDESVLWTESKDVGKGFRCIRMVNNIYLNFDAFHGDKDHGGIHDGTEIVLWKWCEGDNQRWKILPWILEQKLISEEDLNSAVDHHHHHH" assay_result=0.61
